Test system: L. donovani strain 9515 intramacrophage amastigotes
Assay: Intramacrophage antileishmanial growth inhibition assay
Type: cell-based
Settings: Leishmania donovani, read-out: Anti‐amastigote growth inhibition (%)
inhibition at 10 µM reference

Solved entries (count: 5):
[[record]]
mol = "COCCOCCOCCN1C=Nc2ccccc2S1(=O)=O"
reported_result = "0%"

[[record]]
mol = "O=S1(=O)c2ccccc2N=CN1CCOc1ccccc1"
reported_result = "0%"

[[record]]
mol = "O=S1(=O)c2ccccc2N=CN1CCOc1ccc(Br)cc1"
reported_result = "0%"

[[record]]
mol = "COCCN1C=Nc2ccccc2S1(=O)=O"
reported_result = "0%"

[[record]]
mol = "CCOCCOCCN1C=Nc2ccccc2S1(=O)=O"
reported_result = "0%"


q: Any idea what inhibition at 10 µM was measured for C#CCN1C=Nc2ccccc2S1(=O)=O ?
a: 0%

----------
inhibition at 10 µM reference
System: L. donovani strain 9515 intramacrophage amastigotes
Experiment: Intramacrophage antileishmanial growth inhibition assay
Assay type: cell-based
Details: Leishmania donovani, read-out: Anti‐amastigote growth inhibition (%)
Answer with a number only, understood to be in %.

Solved entries (count: 3):
[[record]]
molecule = "C=CCOCCN1C=Nc2ccccc2S1(=O)=O"
tgt = "L. donovani strain 9515 intramacrophage amastigotes"
reported_result = 0

[[record]]
molecule = "CCOCCN1C=Nc2ccccc2S1(=O)=O"
tgt = "L. donovani strain 9515 intramacrophage amastigotes"
reported_result = 0

[[record]]
molecule = "C[C@@H]1[C@H](O)[C@@H](C)/C=C/C=C/C=C/C=C/C=C/C=C/C=C/[C@H](O[C@@H]2O[C@H](C)[C@@H](O)[C@H](N)[C@@H]2O)C[C@@H]2O[C@](O)(C[C@@H](O)C[C@@H](O)[C@H](O)CC[C@@H](O)C[C@@H](O)CC(=O)O[C@H]1C)C[C@H](O)[C@H]2C(=O)O [AmB, Amphotericin B, reference compound]"
tgt = "L. donovani strain 9515 intramacrophage amastigotes"
reported_result = 100


q: Any idea what inhibition at 10 µM was measured for O=[N+]([O-])c1ccc(OCCN2C=Nc3ccccc3S2(=O)=O)cc1 ?
a: 0

q: Any idea what inhibition at 10 µM was measured for COCCOCCN1C=Nc2ccccc2S1(=O)=O ?
a: 0

----------
Test system: L. major (strain NIH S (MHOM/SN/74/Seidman)) promastigotes
Assay: Antipromastigote resazurin assay
Type: cell-based, Leishmania major
MEASUREMENT LABEL: SI2: Selectivity index=IC50 Vero/L. major antipromastigote IC50
Output: the number by itself.

Solved entries (count: 3):
[[record]]
molecule = "O=S1(=O)c2ccccc2N=CN1CCO [Compound 2]"
tgt = "L. major (strain NIH S (MHOM/SN/74/Seidman)) promastigotes"
reported_result = 0.70

[[record]]
molecule = "O=[N+]([O-])c1ccc(OCCN2C=Nc3ccccc3S2(=O)=O)cc1 [Compound 12]"
tgt = "L. major (strain NIH S (MHOM/SN/74/Seidman)) promastigotes"
reported_result = 0.85

[[record]]
molecule = "O=S1(=O)c2ccccc2N=CN1CCOc1ccc(Cl)cc1 [Compound 11]"
tgt = "L. major (strain NIH S (MHOM/SN/74/Seidman)) promastigotes"
reported_result = 2.49


q: Any idea what SI2: Selectivity index=IC50 Vero/L. major antipromastigote IC50 was measured for O=S1(=O)c2ccccc2N=CN1CCOc1ccccc1 [Compound 9] ?
a: 9.41

q: Any idea what SI2: Selectivity index=IC50 Vero/L. major antipromastigote IC50 was measured for CCOCCOCCN1C=Nc2ccccc2S1(=O)=O [Compound 7] ?
a: 1.48
